Readings of AIRE transcriptional activation functional score for the listed variants
B1: library; numbered along this chain (parent)
chain: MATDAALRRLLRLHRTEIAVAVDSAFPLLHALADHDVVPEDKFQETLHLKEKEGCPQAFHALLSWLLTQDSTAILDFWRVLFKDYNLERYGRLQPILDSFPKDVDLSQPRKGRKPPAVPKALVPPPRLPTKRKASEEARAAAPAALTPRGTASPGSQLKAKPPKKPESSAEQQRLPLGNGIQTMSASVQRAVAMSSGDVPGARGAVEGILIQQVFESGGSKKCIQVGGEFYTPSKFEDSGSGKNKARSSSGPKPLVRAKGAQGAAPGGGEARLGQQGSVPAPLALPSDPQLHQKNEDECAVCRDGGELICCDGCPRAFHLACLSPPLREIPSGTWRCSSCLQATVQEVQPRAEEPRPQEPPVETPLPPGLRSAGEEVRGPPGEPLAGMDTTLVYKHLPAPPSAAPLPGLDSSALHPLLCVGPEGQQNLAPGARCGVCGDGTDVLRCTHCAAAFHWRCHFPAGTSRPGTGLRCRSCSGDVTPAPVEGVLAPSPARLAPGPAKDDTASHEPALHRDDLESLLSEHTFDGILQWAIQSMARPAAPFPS

Variants of: B1
assay_protocol: AIRE transcriptional activation functional score (insulin promoter-GFP; nonsense median 0, synonymous median 1) (normalised score); higher = higher AIRE activity (more reporter activation)
run_conditions: with insulin promoter-GFP reporter in HEK293
Just the number, please, no unit after it.

Example results:
>>> print(df.to_string())
   changes  reported_value
0    G438S            1.24
1    R272A            0.71
2    A343D            1.18

Form field AIRE transcriptional activation functional score, entry T344I : 0.748

Form field AIRE transcriptional activation functional score, entry R371L : 1.5

Form field AIRE transcriptional activation functional score, entry K235C : 1.5

Form field AIRE transcriptional activation functional score, entry K165E : 1.01

Form field AIRE transcriptional activation functional score, entry A404V : 0.729

Form field AIRE transcriptional activation functional score, entry L327V : 0.621

Form field AIRE transcriptional activation functional score, entry S71P : -0.532

Form field AIRE transcriptional activation functional score, entry A58S : -0.0331

Form field AIRE transcriptional activation functional score, entry W531Q : 0.225

Form field AIRE transcriptional activation functional score, entry H454G : 0.0883

Form field AIRE transcriptional activation functional score, entry G201F : 1.02

Form field AIRE transcriptional activation functional score, entry W78T : 0.642

Form field AIRE transcriptional activation functional score, entry H60D : -0.0281

Form field AIRE transcriptional activation functional score, entry H507T : 0.361

Form field AIRE transcriptional activation functional score, entry G333F : 1.02

Form field AIRE transcriptional activation functional score, entry E508C : 0.854
